# Test system: XF498
# TEST_DESCRIPTION: NCI tumour cell line growth inhibition, 48 h
Active and inactive are the calls of the source. Cut-off read from the data, not from the text of the source: active = GI50 up to about 1.1 µM and inactive = higher.
RECORDED_ENDPOINT: GI50

> print(dat)
                                   molecule  recorded.endpoint                value
1  COc1ccccc1C(=O)Nc1ccc(Cl)c(C(=O)OC(C)C)c1               GI50   21.9 µM (inactive)
2  C/C(CC(=O)Nc1ccc(C)c(C)c1)=N\N(c1ccccc1)c1ccccc1               GI50  > 100 µM (inactive)
3  CCOC(=O)N1CCc2cc(OC)c(OC)cc2/C1=C\c1ccc(OC)c(OC)c1               GI50   > 10 µM (inactive)
4   C1CCN2CC3CONC3C2C1 (stereo unspecified)               GI50  > 100 µM (inactive)
5  CON1C(=O)C2(CCCCC2)C(=O)C12C=CC(C)CC2 (stereo unspecified)               GI50  > 100 µM (inactive)
6  C=C1C[C@]23C[C@@]1(O)CC[C@H]2[C@@]12C=C[C@H](O)[C@@](C)(C(=O)O1)[C@H]2[C@@H]3C(=O)O               GI50  > 100 µM (inactive)

====

// reported GI50 for each item listed
# System: COLO 205
# TEST_DESCRIPTION: NCI tumour cell line growth inhibition, 48 h
Activity calls are given as the source filed them. Cut-off read from the data, not from the text of the source: active = GI50 up to about 1.1 µM and inactive = higher.

COMPOUND	GI50
CC1(O)C(C)(O)C(C)(O)C1(C)O (configuration not stated)	> 100 µM (inactive)
CC(C)(C)OC(=O)NCC(=O)N(CCc1ccc(Cl)c(Cl)c1)CCN1CCCC1	13.6 µM (inactive)
CCOC(=O)c1cnc2oc(-c3ccc(OC)cc3)nn2c1=O	> 100 µM (inactive)
C=CCOC1=C(OC(C)=O)C(C2COC(C)(C)O2)OC1=O (configuration not stated)	20 µM (inactive)
CN(C)C(=O)OC1=CC2CCC(C1)N2C (configuration not stated)	> 100 µM (inactive)
COc1ccc([C@]23CCN(S(=O)(=O)c4ccc(C)cc4)[C@H]2[C@H](CO)C2(CC3)OCC(C)(C)CO2)cc1OC	> 100 µM (inactive)
CCCCCCCC/C=C\CCCCCCCC(=O)O [OLEIC ACID]	> 500 µM (inactive)
C[C@]12CCC3c4ccc(OC(=O)c5ccccc5)cc4CC[C@H]3C1CC[C@@H]2OC(=O)C12OC1CCC2=O (some centres not stated)	2.84 µM (inactive)
O=C1Nc2ccccc2/C1=N/NC(=S)N1CCCC1	1.44 µM (inactive)
C=C1C(=O)OCC2C(C(=O)O)=CC3C(C)C(C)=CC123 (configuration not stated)	10.6 µM (inactive)
Clc1ccc(C2ON=C(c3ccccc3)N2C23CC4CC(CC(C4)C2)C3)cc1 (configuration not stated)	> 10 µM (inactive)
OCC1OC(n2nc(-c3ccccc3)nc2-c2cnccn2)C(O)C(O)C1O (configuration not stated)	> 100 µM (inactive)
CC(=O)OC1COC(n2c(=S)n(-c3ccccc3)c(=O)c3cc(Br)ccc32)C(OC(C)=O)C1OC(C)=O (configuration not stated)	> 100 µM (inactive)
Cc1ccc(NS(=O)(=O)c2cc(C(C)(C)C)ccc2OCCOCCOCCOc2ccc(C(C)(C)C)cc2S(=O)(=O)Nc2ccc(C)cc2)cc1	> 100 µM (inactive)
NCCN1C(=O)c2ccccc2C1c1ccc(Cl)cc1 (configuration not stated)	> 100 µM (inactive)
O=C(/C=C/c1ccc2c(c1)OCO2)Cc1nc2ccccc2[nH]c1=O	52.6 µM (inactive)
CCCCCCCCCCCCCCCCCCOP(=O)([O-])OC1CC[N+](C)(C)CC1 [PERIFOSINE]	3.24 µM (inactive)
CC(C)C.C[N+](C)(C)C.OC(c1ccccc1)(C(F)(F)F)C(F)(F)F.OC(c1ccccc1)(C(F)(F)F)C(F)(F)F.[SiH3-]	6.49 µM (inactive)
Nc1ccc2nc3n(c2c1)C(c1c(F)cccc1F)SC3 (configuration not stated)	> 100 µM (inactive)
C[n+]1c(/C=C/c2ccc(O)c3ncccc23)[se]c2ccccc21	5.58 µM (inactive)
CC1=NC(C)(C)[N+]([O-])=C1	> 10 µM (inactive)
Cn1c2c(c3ccccc31)CC(=O)N1CCCC(C1)CC21OCCO1 (configuration not stated)	> 100 µM (inactive)
C[N+](C)(C)CC1CCc2ccccc2C1=O (configuration not stated)	7.55 µM (inactive)
Cc1ccc2nc(-c3ccc(C(C)(C)C)cc3)oc(=O)c2c1	18.2 µM (inactive)
COc1ccc(C2=CC3CCC2C3)cc1 (configuration not stated)	> 100 µM (inactive)
CCCCCCCCCCCC(=O)OCC(O)CO (configuration not stated) [GLYCEROL MONOLAURATE]	> 100 µM (inactive)
COc1cc(/C=N/N=C(\N)NO)cc(OC)c1OC	12.4 µM (inactive)
C=C1C(=O)O[C@H]2C(=O)[C@H](C)CCC[C@@](C)(O)/C=C\C[C@@]3(C)O[C@@H]3C[C@@H]12	16.2 µM (inactive)
CN(C)CC(CC1=C(CC(CN(C)C)N(C)C)CCC1)N(C)C (configuration not stated)	> 100 µM (inactive)
CC(C)=CCC[C@@H](C)C1=C(N)C(=O)C(C)=C(O)C1=O	29.2 µM (inactive)
COC(=O)[C@]12CC3C=CC1N(C3)C(CBr)c1c2n(S(=O)(=O)c2ccccc2)c2ccccc12 (some centres not stated)	> 100 µM (inactive)
C=C(C)C(=O)OC1C(C(C)CCCO)=C(CO)CC2OC(=O)C(=C)C21 (configuration not stated)	15.1 µM (inactive)
CCOc1ccc2nc(-c3ccc(O)cc3)sc2c1	> 100 µM (inactive)
O=C1CCCn2c(nc3ccccc32)N1	> 100 µM (inactive)
CC[S+]1C2=C(CC(C)(C)CC2=O)[N-]c2ccccc21 (configuration not stated)	> 100 µM (inactive)
CS(=O)(=O)NNS(=O)(=O)c1cccc([N+](=O)[O-])c1	> 100 µM (inactive)
CC(C)=C1C(=O)C[C@]2(C)C[C@H]3/C(=C(/C)CCC12)CC[C@@]3(C)O (some centres not stated)	45 µM (inactive)
NC(CCc1ncc(C(=O)O)s1)C(=O)O (configuration not stated)	> 100 µM (inactive)
C#C[C@H]1CCCCCC1O (some centres not stated)	> 100 µM (inactive)
C[C@]12C[C@@H](OC(=O)[C@]1(C)O)[C@@H]([C@]1(O)CC[C@H]3[C@@H]4C[C@H]5O[C@]56C[C@H]5O[C@H]5C(=O)[C@]6(C)[C@H]4CC[C@@]31C)C2	> 50 µM (inactive)
Cc1c(-c2ccccc2)c(C#N)c2nnn(-c3ccccc3)c(=O)n12	54.1 µM (inactive)
O=C1C=CC(O)(C#CCO)C=C1	6.85 µM (inactive)
